- testDetails: physchem
- testContext: pH 7.4, aqueous buffer, kinetic from dmso stock, Solubility Range
experimentalReadout: solubility at 24 h

1) CCCC1(C(=O)O)CCN(c2ncc(-c3cc(-c4cc(OC)ccn4)c4sc(NC(=O)NCC)nc4c3)cn2)CC1 :: > 800 µg/mL
2) CCNC(=O)Nc1nc2cc(-c3cnc(N4CCC(O)C(C)(C(=O)OC)C4)nc3)cc(-c3ccccn3)c2s1 (stereo not shown) :: 12.5 to 400 µg/mL
3) CCNC(=O)Nc1nc2cc(-c3cnc(N4CCC(CC)(C(=O)O)CC4)nc3)cc(C(=O)CC)c2s1 :: 12.5 to 400 µg/mL

Proceeding to the next molecule to report its solubility at 24 h.
Qu. Returns the measured solubility at 24 h for the input molecule. Input: `CCNC(=O)Nc1nc2cc(-c3cnc(N4CCC(C)(C(=O)O)CC4)nc3)cc(-c3cncs3)c2s1`
Ans. > 800 µg/mL
